- MEASURED ON: MERTK (Homo sapiens, UniProt Q12866)
- Construct: endogenous in cells
- Sequence (Q12866 21-999): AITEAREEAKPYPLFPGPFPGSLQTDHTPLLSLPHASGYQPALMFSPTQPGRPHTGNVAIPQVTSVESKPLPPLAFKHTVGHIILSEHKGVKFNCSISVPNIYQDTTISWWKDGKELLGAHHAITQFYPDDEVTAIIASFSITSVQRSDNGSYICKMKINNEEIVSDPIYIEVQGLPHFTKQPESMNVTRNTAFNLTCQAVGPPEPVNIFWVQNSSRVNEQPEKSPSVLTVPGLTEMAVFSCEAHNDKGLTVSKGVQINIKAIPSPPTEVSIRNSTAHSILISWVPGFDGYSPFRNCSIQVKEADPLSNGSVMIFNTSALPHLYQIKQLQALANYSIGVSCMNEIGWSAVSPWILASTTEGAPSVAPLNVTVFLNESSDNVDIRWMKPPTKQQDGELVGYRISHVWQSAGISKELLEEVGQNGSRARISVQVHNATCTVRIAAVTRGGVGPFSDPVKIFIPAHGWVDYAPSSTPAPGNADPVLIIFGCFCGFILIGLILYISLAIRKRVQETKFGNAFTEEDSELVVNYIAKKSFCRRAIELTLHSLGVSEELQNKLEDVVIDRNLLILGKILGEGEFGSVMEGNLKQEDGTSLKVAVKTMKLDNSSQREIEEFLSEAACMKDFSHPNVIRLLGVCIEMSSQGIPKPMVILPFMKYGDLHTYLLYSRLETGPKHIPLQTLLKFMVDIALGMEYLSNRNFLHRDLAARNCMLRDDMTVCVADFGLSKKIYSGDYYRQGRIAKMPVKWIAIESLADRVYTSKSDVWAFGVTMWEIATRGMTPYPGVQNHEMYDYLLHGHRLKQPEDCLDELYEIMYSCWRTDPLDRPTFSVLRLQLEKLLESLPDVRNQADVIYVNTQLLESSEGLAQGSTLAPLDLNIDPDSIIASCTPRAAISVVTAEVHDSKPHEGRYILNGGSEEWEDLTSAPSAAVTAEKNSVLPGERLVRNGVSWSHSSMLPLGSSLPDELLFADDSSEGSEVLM
- METHOD DESCRIPTION: KAM-matrix competition in K562 lysate
- CONDITION DETAILS: KAM 0.001-10 uM, read-out: RB50 (the source's name)
pIC50: −log10 of the molar value.
QUANTITY MEASURED: pIC50

## Task Quick one: pIC50 of N#CCc1ccc(Nc2nc(NCCCN)cc(Nc3cc(C4CC4)[nH]n3)n2)cc1 [KAM] ?
## Result < 5.00

----------
- MEASURED ON: PKMYT1 (Homo sapiens)
- Construct: endogenous in cells
- Sequence (Q99640 1-499): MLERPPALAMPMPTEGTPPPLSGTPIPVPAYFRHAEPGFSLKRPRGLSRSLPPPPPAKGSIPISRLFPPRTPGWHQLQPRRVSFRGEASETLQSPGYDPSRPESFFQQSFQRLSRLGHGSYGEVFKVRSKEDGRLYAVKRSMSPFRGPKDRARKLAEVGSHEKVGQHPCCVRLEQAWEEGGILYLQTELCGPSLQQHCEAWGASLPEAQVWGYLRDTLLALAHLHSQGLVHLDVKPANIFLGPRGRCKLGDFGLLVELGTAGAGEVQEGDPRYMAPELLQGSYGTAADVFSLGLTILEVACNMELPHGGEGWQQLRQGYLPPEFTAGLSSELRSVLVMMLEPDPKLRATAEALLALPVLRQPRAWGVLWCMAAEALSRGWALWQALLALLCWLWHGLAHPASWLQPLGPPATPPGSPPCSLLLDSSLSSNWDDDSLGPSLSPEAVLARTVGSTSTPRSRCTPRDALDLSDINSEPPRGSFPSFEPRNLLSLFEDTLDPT
- METHOD DESCRIPTION: KAM-matrix competition in K562 lysate
- CONDITION DETAILS: KAM 0.001-10 uM, read-out: RB50 (the source's name)
QUANTITY MEASURED: IC50

## Task Sample N#CCc1ccc(Nc2nc(NCCCN)cc(Nc3cc(C4CC4)[nH]n3)n2)cc1 [KAM] — what was its IC50?
## Result > 10 µM

----------
- MEASURED ON: TKT (Homo sapiens)
- Construct: endogenous in cells; host or cells: K562
- Sequence (P29401 1-623): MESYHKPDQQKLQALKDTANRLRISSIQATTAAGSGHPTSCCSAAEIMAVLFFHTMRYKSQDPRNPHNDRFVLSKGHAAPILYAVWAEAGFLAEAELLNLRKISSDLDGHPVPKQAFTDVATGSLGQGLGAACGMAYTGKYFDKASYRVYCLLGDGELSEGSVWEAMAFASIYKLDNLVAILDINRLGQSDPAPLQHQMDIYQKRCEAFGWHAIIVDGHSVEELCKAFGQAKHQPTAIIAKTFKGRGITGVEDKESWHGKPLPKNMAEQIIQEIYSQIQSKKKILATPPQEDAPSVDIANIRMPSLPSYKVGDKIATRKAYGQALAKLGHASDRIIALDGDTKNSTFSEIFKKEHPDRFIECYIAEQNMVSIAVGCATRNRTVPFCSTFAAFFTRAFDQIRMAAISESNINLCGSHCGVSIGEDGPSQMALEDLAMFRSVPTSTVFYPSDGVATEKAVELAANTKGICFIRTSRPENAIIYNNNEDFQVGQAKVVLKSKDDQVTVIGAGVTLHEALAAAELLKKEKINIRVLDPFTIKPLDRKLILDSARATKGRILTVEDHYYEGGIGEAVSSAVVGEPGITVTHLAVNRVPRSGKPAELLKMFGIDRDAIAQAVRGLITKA
- METHOD DESCRIPTION: Imatinib-matrix competition in K562 lysate
- Assay type: binding
- CONDITION DETAILS: read-out: RB50 (the source's name)
pIC50: −log10 of the molar value.
QUANTITY MEASURED: pIC50

## Task Find the measured pIC50: item Cc1ccc(NC(=O)c2ccc(CN3CCN(C)CC3)cc2)cc1Nc1nccc(-c2cccnc2)n1 [Imatinib] , target or system TKT (Homo sapiens).
## Result < 5.00

----------
- MEASURED ON: STK3 (Homo sapiens, UniProt Q13188)
- Construct: endogenous in cells
- Sequence (Q13188 1-491): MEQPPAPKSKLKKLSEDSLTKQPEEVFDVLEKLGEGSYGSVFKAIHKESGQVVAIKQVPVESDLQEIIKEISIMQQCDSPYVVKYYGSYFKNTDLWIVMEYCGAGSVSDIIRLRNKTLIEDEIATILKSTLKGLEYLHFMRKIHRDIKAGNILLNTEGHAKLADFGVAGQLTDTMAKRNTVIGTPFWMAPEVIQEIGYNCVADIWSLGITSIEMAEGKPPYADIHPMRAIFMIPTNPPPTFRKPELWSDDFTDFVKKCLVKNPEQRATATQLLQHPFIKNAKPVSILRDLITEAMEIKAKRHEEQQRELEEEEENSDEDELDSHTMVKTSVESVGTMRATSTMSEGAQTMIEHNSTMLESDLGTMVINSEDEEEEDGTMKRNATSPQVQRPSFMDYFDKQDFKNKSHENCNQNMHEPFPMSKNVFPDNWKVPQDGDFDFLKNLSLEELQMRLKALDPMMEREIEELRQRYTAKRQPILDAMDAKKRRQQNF
- METHOD DESCRIPTION: KAM-matrix competition in K562 lysate
- CONDITION DETAILS: read-out: RB50 (the source's name)
QUANTITY MEASURED: IC50 (µM)
Could you give me the number in µM? Just the number is fine.

## Task Which IC50 reading was recorded for the compound `N#CCc1ccc(Nc2nc(NCCCN)cc(Nc3cc(C4CC4)[nH]n3)n2)cc1` ?
## Result 3.72

----------
- MEASURED ON: CDK16 (Homo sapiens)
- Construct: endogenous in cells
- METHOD DESCRIPTION: KAM-matrix competition in K562 lysate
- CONDITION DETAILS: read-out: RB50 (the source's name)
- Experimental: Supplement 12953_2017_125_MOESM1_ESM.zip/MS_Supp Info.xlsx, sheet "KAM" | column: 10 uM KAM; 1 uM KAM; 0.1 uM KAM; 0.01 uM KAM; 0.001 uM KAM; RB50
QUANTITY MEASURED: pIC50
Scale: pIC50 equals -log10([C]), with [C] in mol/L.

## Task Field request: pIC50 | item: `N#CCc1ccc(Nc2nc(NCCCN)cc(Nc3cc(C4CC4)[nH]n3)n2)cc1`
## Result 5.70

----------
- MEASURED ON: MAST2 (Homo sapiens, UniProt Q6P0Q8)
- Construct: endogenous in cells
- Sequence (Q6P0Q8 whole entry): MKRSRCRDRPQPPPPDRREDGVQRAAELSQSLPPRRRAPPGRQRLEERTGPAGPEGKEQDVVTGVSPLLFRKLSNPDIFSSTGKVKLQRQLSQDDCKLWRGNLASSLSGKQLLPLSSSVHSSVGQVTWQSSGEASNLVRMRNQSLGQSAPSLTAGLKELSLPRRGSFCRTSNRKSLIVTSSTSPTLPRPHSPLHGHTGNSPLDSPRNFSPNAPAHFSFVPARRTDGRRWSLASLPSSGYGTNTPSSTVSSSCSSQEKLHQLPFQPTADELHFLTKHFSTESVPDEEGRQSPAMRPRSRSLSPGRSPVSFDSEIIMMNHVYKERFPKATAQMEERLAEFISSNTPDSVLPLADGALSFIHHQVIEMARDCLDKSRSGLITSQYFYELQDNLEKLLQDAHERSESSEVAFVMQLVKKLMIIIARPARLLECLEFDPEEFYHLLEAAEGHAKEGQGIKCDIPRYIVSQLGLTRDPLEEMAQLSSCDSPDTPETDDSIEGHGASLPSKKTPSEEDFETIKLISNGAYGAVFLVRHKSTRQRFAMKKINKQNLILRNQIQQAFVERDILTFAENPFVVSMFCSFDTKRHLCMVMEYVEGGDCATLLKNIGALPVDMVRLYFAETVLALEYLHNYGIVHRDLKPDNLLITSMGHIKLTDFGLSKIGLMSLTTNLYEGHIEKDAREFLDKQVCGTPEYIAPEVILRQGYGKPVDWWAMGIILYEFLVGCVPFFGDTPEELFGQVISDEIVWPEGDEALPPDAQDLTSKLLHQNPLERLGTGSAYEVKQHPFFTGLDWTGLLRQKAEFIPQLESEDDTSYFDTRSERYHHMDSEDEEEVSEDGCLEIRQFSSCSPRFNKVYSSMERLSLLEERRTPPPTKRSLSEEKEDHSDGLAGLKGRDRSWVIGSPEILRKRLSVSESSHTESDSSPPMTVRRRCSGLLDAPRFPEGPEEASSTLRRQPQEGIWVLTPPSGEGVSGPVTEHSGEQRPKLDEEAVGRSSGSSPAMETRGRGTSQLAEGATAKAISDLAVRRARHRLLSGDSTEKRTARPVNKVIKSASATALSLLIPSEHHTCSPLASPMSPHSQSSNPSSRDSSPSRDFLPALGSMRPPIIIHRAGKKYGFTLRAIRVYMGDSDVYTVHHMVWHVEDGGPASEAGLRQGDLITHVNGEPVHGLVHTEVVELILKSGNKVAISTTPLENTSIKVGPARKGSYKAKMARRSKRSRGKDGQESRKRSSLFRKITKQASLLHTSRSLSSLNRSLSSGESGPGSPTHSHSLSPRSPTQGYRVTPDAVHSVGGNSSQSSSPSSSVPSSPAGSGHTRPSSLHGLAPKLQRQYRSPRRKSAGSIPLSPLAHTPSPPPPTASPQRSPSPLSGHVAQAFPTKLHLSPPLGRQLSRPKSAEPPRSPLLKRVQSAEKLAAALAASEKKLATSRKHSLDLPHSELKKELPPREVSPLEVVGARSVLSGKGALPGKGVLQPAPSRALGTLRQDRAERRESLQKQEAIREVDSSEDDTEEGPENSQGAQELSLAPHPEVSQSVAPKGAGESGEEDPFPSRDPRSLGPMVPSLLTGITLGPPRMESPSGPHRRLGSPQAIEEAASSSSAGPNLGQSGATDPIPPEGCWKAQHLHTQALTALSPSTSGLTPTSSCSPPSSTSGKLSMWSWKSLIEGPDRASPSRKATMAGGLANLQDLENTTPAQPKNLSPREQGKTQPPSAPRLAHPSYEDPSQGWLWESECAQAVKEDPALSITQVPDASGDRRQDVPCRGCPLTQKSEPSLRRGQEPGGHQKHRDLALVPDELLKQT
- METHOD DESCRIPTION: KAM-matrix competition in K562 lysate
- CONDITION DETAILS: KAM 0.001-10 uM, read-out: RB50 (the source's name)
QUANTITY MEASURED: IC50

## Task Please report the recorded IC50 for `N#CCc1ccc(Nc2nc(NCCCN)cc(Nc3cc(C4CC4)[nH]n3)n2)cc1` .
## Result > 10 µM

----------
- MEASURED ON: PIK3R4 (Homo sapiens)
- Construct: endogenous in cells; host or cells: K562
- Sequence (Q99570 2-1358 limits assumed): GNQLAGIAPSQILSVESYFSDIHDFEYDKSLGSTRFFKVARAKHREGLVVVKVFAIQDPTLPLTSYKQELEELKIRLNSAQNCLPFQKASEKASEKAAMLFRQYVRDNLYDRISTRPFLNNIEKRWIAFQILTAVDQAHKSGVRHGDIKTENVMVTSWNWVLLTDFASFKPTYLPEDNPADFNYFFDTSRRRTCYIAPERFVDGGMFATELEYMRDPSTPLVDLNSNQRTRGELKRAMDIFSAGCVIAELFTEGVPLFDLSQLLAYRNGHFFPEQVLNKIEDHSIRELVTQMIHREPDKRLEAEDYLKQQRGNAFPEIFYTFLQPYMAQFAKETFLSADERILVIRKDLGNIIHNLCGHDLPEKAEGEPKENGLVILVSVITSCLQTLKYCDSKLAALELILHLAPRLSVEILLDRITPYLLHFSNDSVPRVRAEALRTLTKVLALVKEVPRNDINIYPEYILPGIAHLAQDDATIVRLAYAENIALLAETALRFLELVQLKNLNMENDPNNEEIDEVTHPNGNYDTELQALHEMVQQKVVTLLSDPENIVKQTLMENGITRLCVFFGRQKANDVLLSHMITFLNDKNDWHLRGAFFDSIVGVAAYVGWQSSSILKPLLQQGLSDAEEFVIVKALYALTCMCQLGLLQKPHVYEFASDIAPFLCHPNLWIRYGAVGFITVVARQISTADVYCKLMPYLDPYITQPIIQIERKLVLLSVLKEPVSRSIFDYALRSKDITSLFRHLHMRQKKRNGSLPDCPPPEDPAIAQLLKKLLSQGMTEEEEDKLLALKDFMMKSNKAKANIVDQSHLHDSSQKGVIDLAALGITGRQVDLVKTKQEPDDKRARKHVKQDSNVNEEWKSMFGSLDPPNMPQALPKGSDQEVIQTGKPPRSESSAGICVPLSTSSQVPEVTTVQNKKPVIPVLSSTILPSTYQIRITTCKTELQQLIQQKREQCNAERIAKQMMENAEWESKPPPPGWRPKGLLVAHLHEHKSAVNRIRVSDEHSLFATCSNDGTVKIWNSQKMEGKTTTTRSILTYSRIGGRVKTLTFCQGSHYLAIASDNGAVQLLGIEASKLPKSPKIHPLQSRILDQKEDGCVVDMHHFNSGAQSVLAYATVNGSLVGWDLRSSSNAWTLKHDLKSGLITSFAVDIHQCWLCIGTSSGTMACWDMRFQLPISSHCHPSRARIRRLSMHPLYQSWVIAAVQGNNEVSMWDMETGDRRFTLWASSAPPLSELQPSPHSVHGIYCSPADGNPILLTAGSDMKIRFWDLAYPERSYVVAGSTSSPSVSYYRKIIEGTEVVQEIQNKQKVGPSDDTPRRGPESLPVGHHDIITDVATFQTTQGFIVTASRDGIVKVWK
- Sequence (Q8NEB9 whole entry partner): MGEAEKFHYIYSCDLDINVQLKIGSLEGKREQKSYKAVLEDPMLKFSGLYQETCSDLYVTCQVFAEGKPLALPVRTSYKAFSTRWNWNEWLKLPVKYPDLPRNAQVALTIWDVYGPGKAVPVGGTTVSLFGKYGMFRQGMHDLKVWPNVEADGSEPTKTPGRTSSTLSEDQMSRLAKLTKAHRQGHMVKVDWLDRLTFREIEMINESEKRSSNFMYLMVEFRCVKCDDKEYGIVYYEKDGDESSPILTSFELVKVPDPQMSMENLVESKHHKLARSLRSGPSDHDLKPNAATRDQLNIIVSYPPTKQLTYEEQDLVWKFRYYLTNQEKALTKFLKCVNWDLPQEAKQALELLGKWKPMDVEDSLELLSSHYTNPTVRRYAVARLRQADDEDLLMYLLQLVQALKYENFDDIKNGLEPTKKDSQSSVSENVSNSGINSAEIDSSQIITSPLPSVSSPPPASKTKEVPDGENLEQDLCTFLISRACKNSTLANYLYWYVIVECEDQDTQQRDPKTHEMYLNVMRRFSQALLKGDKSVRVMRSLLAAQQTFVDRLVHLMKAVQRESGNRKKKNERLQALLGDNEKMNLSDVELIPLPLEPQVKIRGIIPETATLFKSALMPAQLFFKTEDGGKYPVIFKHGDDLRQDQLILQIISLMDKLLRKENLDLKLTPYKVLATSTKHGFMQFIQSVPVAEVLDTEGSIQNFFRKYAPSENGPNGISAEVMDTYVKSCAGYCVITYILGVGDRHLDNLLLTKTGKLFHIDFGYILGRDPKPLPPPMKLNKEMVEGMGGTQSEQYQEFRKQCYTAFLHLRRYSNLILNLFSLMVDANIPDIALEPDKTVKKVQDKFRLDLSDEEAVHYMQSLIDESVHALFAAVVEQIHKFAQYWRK
- METHOD DESCRIPTION: Dasatinib-matrix competition in K562 lysate
- CONDITION DETAILS: residual binding 50 value; read-out: RB50 (the source's name)
QUANTITY MEASURED: IC50

## Task Reported IC50 for PIK3R4 (Homo sapiens), given `Cc1nc(Nc2ncc(C(=O)Nc3c(C)cccc3Cl)s2)cc(N2CCN(CCO)CC2)n1` ?
## Result > 10 µM

----------
- MEASURED ON: STK25 (Homo sapiens, UniProt O00506)
- Construct: endogenous in cells
- METHOD DESCRIPTION: KAM-matrix competition in K562 lysate
- CONDITION DETAILS: KAM 0.001-10 uM, read-out: RB50 (the source's name)
pIC50: −log10 of the molar value.
QUANTITY MEASURED: pIC50

## Task For the compound shown here, N#CCc1ccc(Nc2nc(NCCCN)cc(Nc3cc(C4CC4)[nH]n3)n2)cc1 [KAM] , give the reported pIC50.
## Result < 5.00

----------
- MEASURED ON: JAK2 (Homo sapiens, UniProt O60674)
- Construct: endogenous in cells
- METHOD DESCRIPTION: KAM-matrix competition in K562 lysate
- CONDITION DETAILS: read-out: RB50 (the source's name)
QUANTITY MEASURED: IC50 (nM)
Output spec: scalar in nM, unitless text.

## Task Find the measured IC50: item `N#CCc1ccc(Nc2nc(NCCCN)cc(Nc3cc(C4CC4)[nH]n3)n2)cc1` , target or system JAK2 (Homo sapiens, UniProt O60674).
## Result 909

----------
- MEASURED ON: JAK3 (Homo sapiens, UniProt P52333)
- Construct: endogenous in cells
- METHOD DESCRIPTION: KAM-matrix competition in K562 lysate
- CONDITION DETAILS: KAM 0.001-10 uM, read-out: RB50 (the source's name)
pIC50: −log10 of the molar value.
QUANTITY MEASURED: pIC50

## Task pIC50 for N#CCc1ccc(Nc2nc(NCCCN)cc(Nc3cc(C4CC4)[nH]n3)n2)cc1 [KAM] ?
## Result < 5.00
